Item-by-item account of pIC50
- assayed_target: GST-CBP(1081-1197) bromodomain (Homo sapiens (Human), UniProt Q92793)
- Sequence (Q92793 1081-1197): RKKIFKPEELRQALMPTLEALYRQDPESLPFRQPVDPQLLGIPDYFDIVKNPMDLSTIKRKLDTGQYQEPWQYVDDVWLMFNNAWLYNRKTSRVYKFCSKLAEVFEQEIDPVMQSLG
- method_description: CBP AlphaScreen Assay
- condition_notes: binding to biotin-H4(1-21) Ac-K5/8/12/16
Worth noting: pIC50 values are minus log10 of concentrations stated in mol/L.

compound: Cc1ncc(-c2cc3cccc(-c4nc(C5CC5)n5c4CN(C)C(=O)C5C)c3cn2)s1 (centres unmarked) [Example 13]
parameter: pIC50
test_result: 8.70

compound: Cc1ccc2cc(-c3ccn(C)n3)ncc2c1-c1nc(C2CCOCC2)n2c1CN(C)C(=O)C2C (centres unmarked) [Example 105]
parameter: pIC50
test_result: 7.57

compound: CC1C(=O)N(C)Cc2c(-c3cccc4cc(-c5cn(C)cn5)ncc34)nc(C3CC3)n21 (centres unmarked) [Example 76]
parameter: pIC50
test_result: 8.70

// pIC50 lookup, key: CC1C(=O)N(C)Cc2c(-c3c(F)ccc4nc(-c5cnn(C)c5)c(C(F)(F)F)cc34)nc(C3CCOCC3)n21 (centres unmarked) [Example 35]
5.92

// pIC50 lookup, key: CC1C(=O)N(C)Cc2c(-c3cccc4cc(-c5ccn(C)n5)ncc34)nc(C3CCOCC3)n21 (centres unmarked) [Example 85]
7.11

----------
Item-by-item account of IC50
- assayed_target: BRD4(49-170) bromodomain (Homo sapiens (Human), UniProt O60885)
- method_description: BRD4 AlphaScreen Assay
- condition_notes: binding to biotin-H4(1-21) Ac-K5/8/12/16
Quick reminder: number only, in µM, skip the unit.

Solved cases below.
compound: Cc1c(-c2cc3cccc(-c4nc(C5CC5)n5c4CN(C)C(=O)C5C)c3cn2)cnn1C (stereo not shown)
unit_descriptor: µM
IC50: 0.496
//
compound: CN1Cc2c(N3CCCc4nc(-c5cnn(C)c5)c(C(F)(F)F)cc43)nc(C3CC3)n2CC1=O
unit_descriptor: µM
IC50: 25
//
compound: Cc1nn(C)cc1-c1cc2cccc(-c3nc(C4CCOCC4)n4c3CN(C)C(=O)C4C)c2cn1 (stereo not shown) [Example 88]
unit_descriptor: µM
IC50: 0.101
//
compound: Cc1nn(C)cc1-c1cc2cccc(-c3nc(C4CCOCC4)n4c3CN(C)C(=O)C4C)c2cn1 (stereo not shown) [Example 87]
unit_descriptor: µM
IC50: 10.7

Moving on to another compound below.
// IC50 lookup, key: CC(=O)N1CCC(c2nc(-c3cccc4nc(-c5cnn(C)c5)c(C(F)F)cc34)c3n2C(C)C(=O)N(C)C3)CC1 (stereo not shown)
2.56

----------
- assayed_target: BRD4(49-170) bromodomain (Homo sapiens (Human), UniProt O60885)
- method_description: BRD4 AlphaScreen Assay
- condition_notes: binding to biotin-H4(1-21) Ac-K5/8/12/16
Item-by-item account of pIC50
Worth noting: pIC50 values are minus log10 of concentrations stated in mol/L.

Solved cases below.
compound: CCC1C(=O)N(C)Cc2c(-c3cccc4nc(-c5cnn(C)c5)c(C(F)F)cc34)nc(C3CCOCC3)n21 (single isomer, unassigned) [Example 64b]
pIC50: 6.14
--
compound: C[C@H]1C(=O)N(C)Cc2c(-c3cccc4nc(-c5cnn(C)c5)c(C(F)F)cc34)nc(C3CC3)n21 [Example 110a]
pIC50: 5.03

Moving on to another compound below.
// pIC50 lookup, key: CN1Cc2c(-c3cccc4nc(-c5cnn(C)c5)c(C(F)(F)F)cc34)nc(C3CCOCC3)n2CC1=O
4.98

----------
- assayed_target: BRD4(49-170) bromodomain (Homo sapiens (Human))
- method_description: BRD4 AlphaScreen Assay
- condition_notes: binding to biotin-H4(1-21) Ac-K5/8/12/16
parameter: pIC50
Worth noting: pIC50 values are minus log10 of concentrations stated in mol/L.

compound: CC(=O)N1CC(c2nc(-c3cccc4nc(-c5cnn(C)c5)c(C(F)F)cc34)c3n2C(C)C(=O)N(C)C3)C1 (centres unmarked)
pIC50: 5.23

compound: CC1C(=O)N(C)Cc2c(-c3cccc4nc(-c5cnn(C)c5)c(C#N)cc34)nc(C3CC3)n21 (single isomer, unassigned) [Example 56a]
pIC50: 4.60

compound: CC1C(=O)N(C)Cc2c(-c3cccc4nc(-c5cnn(C)c5)c(C(F)F)cc34)nc(C3CN(S(C)(=O)=O)C3)n21 (centres unmarked)
pIC50: 5.07

compound: CC1C(=O)N(C)Cc2c(-c3cccc4nc(-c5cnn(C)c5)c(C(F)F)cc34)nc(C3CCN(S(C)(=O)=O)CC3)n21 (centres unmarked)
pIC50: 5.49

compound: CC1C(=O)N(C)Cc2c(-c3cccc4cc(-c5nn[nH]n5)ncc34)nc(C3CC3)n21 (centres unmarked)
pIC50: 5.52

// pIC50 lookup, key: CC1C(=O)N(C)Cc2c(-c3cc4c(-c5cnn(C)c5)nn(C)c4cc3F)nc(C3CCOCC3)n21 (centres unmarked) [Example 43, 2,2,2-trifluoroacetate]
5.84

// pIC50 lookup, key: CC1C(=O)N(C)Cc2c(-c3ccc4c(cnn4C)c3)nc(C3CC3)n21 (centres unmarked)
5.93

// pIC50 lookup, key: CC1C(=O)N(C)Cc2c(-c3cccc4nc(-c5cnn(C)c5)c(C(F)F)cc34)nc(C3CCNCC3)n21 (centres unmarked)
4.92

----------
- assayed_target: GST-CBP(1081-1197) bromodomain (Homo sapiens (Human))
- method_description: CBP AlphaScreen Assay
- condition_notes: binding to biotin-H4(1-21) Ac-K5/8/12/16
parameter: pIC50
Worth noting: pIC50 values are minus log10 of concentrations stated in mol/L.

compound: Cc1nn(C)cc1-c1cc2cccc(-c3nc(C4CC4)n4c3CN(C)C(=O)C4C)c2cn1 (stereo not drawn)
parameter: pIC50
test_result: 9.00
//
compound: CN1Cc2c(-c3cccc4nc(-c5cnn(C)c5)c(C(F)F)cc34)nc(C3CC3)n2CC1=O
parameter: pIC50
test_result: 6.94

// pIC50 lookup, key: CN1Cc2c(-c3ccc4c(c3)c(-c3cnn(C)c3)nn4C)nc(C3CC3)n2CC1=O
7.54

----------
Item-by-item account of IC50
- assayed_target: GST-CBP(1081-1197) bromodomain (Homo sapiens (Human), UniProt Q92793)
- method_description: CBP AlphaScreen Assay
- condition_notes: binding to biotin-H4(1-21) Ac-K5/8/12/16
Quick reminder: number only, in nM, skip the unit.

molecule: CC1C(=O)N(C)Cc2c(-c3cccc4nc(-c5cnn(C)c5)c(C#N)cc34)nc(C3CC3)n21 (single isomer, unassigned) [Example 56b]
assayed_target: GST-CBP(1081-1197) bromodomain (Homo sapiens (Human), UniProt Q92793)
unit_descriptor: nM
IC50: 1

molecule: CN1Cc2c(-c3cccc4nc(-c5cnn(C)c5)c(C(F)F)cc34)nc(C3CCOCC3)n2CC1=O [Example 93]
assayed_target: GST-CBP(1081-1197) bromodomain (Homo sapiens (Human), UniProt Q92793)
unit_descriptor: nM
IC50: 357

molecule: CC1C(=O)N(C)Cc2c(-c3cccc4cc(-c5ccn(C)n5)ncc34)nc(C3CC3)n21 (centres unmarked) [Example 62]
assayed_target: GST-CBP(1081-1197) bromodomain (Homo sapiens (Human), UniProt Q92793)
unit_descriptor: nM
IC50: 2

molecule: CC1C(=O)N(C)Cc2c(-c3cccc4cc(-c5noc(=O)[nH]5)ncc34)nc(C3CC3)n21 (single isomer, unassigned) [Example 44b]
assayed_target: GST-CBP(1081-1197) bromodomain (Homo sapiens (Human), UniProt Q92793)
unit_descriptor: nM
IC50: 1

Moving on to another molecule below.
// map CC1C(=O)N(C)Cc2c(-c3cccc4cc(C5CCOCC5)ncc34)nc(C3CCOCC3)n21 (single isomer, unassigned) [Example 15b] to recorded IC50 (system: GST-CBP(1081-1197) bromodomain (Homo sapiens (Human), UniProt Q92793))
2
